- MEASUREMENT TARGET: UniProtKB P28566
- TEST DESCRIPTION: cryoEM structure at […] Å
- Type: cell-based
VALUE TYPE: pEC50
Would you please state pEC50, meaning minus log10 of the concentration in mol/L, as a bare number?

Name the reported pEC50 value associated with the compound `CN1CCC2=C(C1)c1ccccc1Cc1ccccc12`
6.77

* * *

- MEASUREMENT TARGET: 5-HT1eR (Homo sapiens, UniProt P28566)
- TEST DESCRIPTION: cryoEM structure at […] Å
VALUE TYPE: pEC50
Would you please state pEC50, meaning minus log10 of the concentration in mol/L, as a bare number?

Name the reported pEC50 value associated with the compound CN1CCN2c3ccccc3Cc3ccccc3C2C1 (stereo not shown) [mianserin]
6.91

* * *

Recorded EC50 by entry
- MEASUREMENT TARGET: 5-HT1eR (Homo sapiens)
- TEST DESCRIPTION: BRET Gi1 activation assay in transfected HEK293T cells, agonism
- Assay type: cell-based
- Sequence (P63096 2-354): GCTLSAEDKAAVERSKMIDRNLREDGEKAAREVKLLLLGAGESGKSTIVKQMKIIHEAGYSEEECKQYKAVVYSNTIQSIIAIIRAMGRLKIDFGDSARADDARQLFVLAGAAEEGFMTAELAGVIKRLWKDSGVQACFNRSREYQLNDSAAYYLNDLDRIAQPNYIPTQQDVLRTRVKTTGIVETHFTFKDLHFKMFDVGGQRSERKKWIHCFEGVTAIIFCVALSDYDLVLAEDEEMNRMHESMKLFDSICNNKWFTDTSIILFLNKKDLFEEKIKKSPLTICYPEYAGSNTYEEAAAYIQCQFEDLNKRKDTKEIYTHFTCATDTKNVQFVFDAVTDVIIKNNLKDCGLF
- Sequence (P62873 2-340, further chain): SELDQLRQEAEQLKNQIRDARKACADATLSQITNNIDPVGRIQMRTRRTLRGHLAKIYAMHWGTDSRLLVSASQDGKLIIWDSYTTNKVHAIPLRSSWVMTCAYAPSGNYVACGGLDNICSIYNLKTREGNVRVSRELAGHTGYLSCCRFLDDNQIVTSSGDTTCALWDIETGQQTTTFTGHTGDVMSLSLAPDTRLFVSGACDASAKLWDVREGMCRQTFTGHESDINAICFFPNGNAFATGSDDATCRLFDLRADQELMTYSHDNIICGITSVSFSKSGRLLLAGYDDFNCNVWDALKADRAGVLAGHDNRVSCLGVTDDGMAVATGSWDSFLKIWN
- Sequence (P59768 2-68, further chain): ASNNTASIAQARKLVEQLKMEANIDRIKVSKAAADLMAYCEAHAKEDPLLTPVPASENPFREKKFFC
- Sequence (P28566 whole entry): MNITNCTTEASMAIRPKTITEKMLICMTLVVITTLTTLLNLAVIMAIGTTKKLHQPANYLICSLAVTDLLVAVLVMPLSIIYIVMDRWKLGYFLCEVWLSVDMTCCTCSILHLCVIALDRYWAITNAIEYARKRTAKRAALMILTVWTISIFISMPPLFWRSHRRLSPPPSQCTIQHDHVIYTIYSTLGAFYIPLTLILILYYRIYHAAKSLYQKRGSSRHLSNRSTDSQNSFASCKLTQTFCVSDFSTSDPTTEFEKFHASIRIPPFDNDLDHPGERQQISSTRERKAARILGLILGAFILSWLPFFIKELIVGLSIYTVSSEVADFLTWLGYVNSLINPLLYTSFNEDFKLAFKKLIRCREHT

CN1CCC(=C2c3ccccc3Sc3ccccc32)CC1 = 353 nM

Moving on to the next molecule.
# value lookup — system 5-HT1eR (Homo sapiens), readout EC50, item `CC[C@@H](CO)NC(=O)[C@@H]1C=C2c3cccc4[nH]cc(c34)C[C@H]2N(C)C1`
17 nM

* * *

- MEASUREMENT TARGET: 5-HT1FR (Homo sapiens, UniProt P30939)
- Sequence (P62873 2-340): as the sequence (P62873 2-340, further chain) above
- Sequence (P30939 whole entry): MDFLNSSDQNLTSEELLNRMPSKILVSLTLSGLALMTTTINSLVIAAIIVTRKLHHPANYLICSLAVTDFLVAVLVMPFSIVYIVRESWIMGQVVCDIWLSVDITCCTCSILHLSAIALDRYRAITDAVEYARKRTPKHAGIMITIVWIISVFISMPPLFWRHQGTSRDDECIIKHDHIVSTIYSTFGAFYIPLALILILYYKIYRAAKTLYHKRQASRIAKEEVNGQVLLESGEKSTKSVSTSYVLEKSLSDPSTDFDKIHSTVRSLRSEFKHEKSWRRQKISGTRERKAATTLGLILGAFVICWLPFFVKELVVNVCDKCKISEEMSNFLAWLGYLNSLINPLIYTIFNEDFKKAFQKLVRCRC
- Sequence (P63096 2-354, further chain): as the sequence (P63096 2-354) above
- Sequence (P59768 2-68, further chain): as the sequence (P59768 2-68, further chain) above
- TEST DESCRIPTION: BRET Gi1 activation assay in transfected HEK293T cells, agonism
- Format: cell-based
VALUE TYPE: pEC50
Would you please state pEC50, meaning minus log10 of the concentration in mol/L, as a bare number?

Worked cases, pEC50 given:
CN1CCC(=C2c3ccccc3Sc3ccccc32)CC1 = 6.34
Cc1cc(C(C)(C)C)c(O)c(C)c1CC1=NCCN1 = 7.95
CC[C@@H](CO)NC(=O)[C@@H]1C=C2c3cccc4[nH]cc(c34)C[C@H]2N(C)C1 = 8.28

Moving on to the next compound.
Name the reported pEC50 value associated with the compound CN1CCN2c3ccccc3Cc3ccccc3C2C1 (stereo not shown)
7.32
